As shown below, each of these molecules has a reported growth value.
- Test system: NCI-H226 lung
- ASSAY PROCEDURE: NCI-60 one-dose screen, 48 h (100 = growth as untreated, 0 = no growth, -100 = all killed)
- CONDITIONS USED: 10 µM unless noted
About 83,000 compounds went through this panel and 20% of them were active in at least one assay; those are over-represented in the sample as a whole.

>  <MOLECULE>
CCCCC[C@@H]1Cc2cc(O)c(C(=O)O)c3c2[C@H](C[C@@]2(CCCO2)O3)O1

>  <EXPERIMENTAL TARGET>
NCI-H226 lung

>  <growth (%)>
110

$$$$
>  <MOLECULE>
CC(C)C[C@H](NC(=O)Cn1ccc(NCc2ccccc2)cc1=O)B(O)O

>  <EXPERIMENTAL TARGET>
NCI-H226 lung

>  <growth (%)>
-75

$$$$
>  <MOLECULE>
CCCCCc1c(C)[nH]c(/C=c2\[nH]/c(=C3/C=c4ccccc4=N3)cc2OC)c1C

>  <EXPERIMENTAL TARGET>
NCI-H226 lung

>  <growth (%)>
-16.4

$$$$
>  <MOLECULE>
CCCCCCCCCN1C(=O)/C(=c2\sc3n(c2=O)C2C(NN=3)N(CC)C(=O)N2CC)c2ccccc21 (configuration not stated)

>  <EXPERIMENTAL TARGET>
NCI-H226 lung

>  <growth (%)>
89.6

$$$$
>  <MOLECULE>
CCCCC(N)(C(=O)O)C1CCCC1 (configuration not stated)

>  <EXPERIMENTAL TARGET>
NCI-H226 lung

>  <growth (%)>
101

$$$$
>  <MOLECULE>
COc1cc(OC)c(C(=O)/C=C/c2cccc(C#N)c2)c(OC)c1

>  <EXPERIMENTAL TARGET>
NCI-H226 lung

>  <growth (%)>
3.93

$$$$
>  <MOLECULE>
COc1ncc(-c2ccc3ncnc(Nc4cccc(Cl)c4)c3c2)cc1NS(=O)(=O)CCN1CCOCC1

>  <EXPERIMENTAL TARGET>
NCI-H226 lung

>  <growth (%)>
22.3

$$$$
>  <MOLECULE>
C=CCOc1cccc(/C=C/C(=O)c2sc(Nc3cccnc3)nc2C)c1

>  <EXPERIMENTAL TARGET>
NCI-H226 lung

>  <growth (%)>
86.1

$$$$
>  <MOLECULE>
CC(=O)c1cc(C(=O)c2ccc3c(c2)Sc2ccccc2N3)c2cc(C)ccn12

>  <EXPERIMENTAL TARGET>
NCI-H226 lung

>  <growth (%)>
56.6

$$$$
>  <MOLECULE>
Cc1ccccc1C(=O)c1ccccc1C(=O)O

>  <EXPERIMENTAL TARGET>
NCI-H226 lung

>  <growth (%)>
110

$$$$
>  <MOLECULE>
CC/C=C\C/C=C\C[C@H]1C/C=C2/C(=O)C=C[C@H]2C/C=C\CCC(=O)O1

>  <EXPERIMENTAL TARGET>
NCI-H226 lung

>  <growth (%)>
-5.58

$$$$
>  <MOLECULE>
c1cc(-c2ccc3c(c2)OCO3)n2nccc2n1

>  <EXPERIMENTAL TARGET>
NCI-H226 lung

>  <growth (%)>
83

$$$$
>  <MOLECULE>
O=C(c1ccncc1)N1N=C(c2ccc(Cl)cc2)CC1c1c[nH]c2ccccc12 (configuration not stated)

>  <EXPERIMENTAL TARGET>
NCI-H226 lung

>  <growth (%)>
82.7

$$$$
>  <MOLECULE>
Nc1c(C(=O)Nc2cccc(C(F)(F)F)c2)sc2nc3c(cc12)CCCCC3

>  <EXPERIMENTAL TARGET>
NCI-H226 lung

>  <growth (%)>
11.3

$$$$
>  <MOLECULE>
CCC(c1ccc(OC)cc1)C(CC)c1ccc(OCC[N+](C)(C)C)cc1 (configuration not stated)

>  <EXPERIMENTAL TARGET>
NCI-H226 lung

>  <growth (%)>
49.8

$$$$
>  <MOLECULE>
Nc1cc2c(cc1N)-c1cc(N)c(N)cc1C2

>  <EXPERIMENTAL TARGET>
NCI-H226 lung

>  <growth (%)>
98

$$$$
>  <MOLECULE>
NC(=O)NNC(=O)c1ccccc1

>  <EXPERIMENTAL TARGET>
NCI-H226 lung

>  <growth (%)>
106

$$$$
>  <MOLECULE>
C=C1C(=O)O[C@H]2[C@H]1CC/C(COC(=O)NCCc1ccc(Br)cc1)=C\CC[C@@]1(C)O[C@@H]21

>  <EXPERIMENTAL TARGET>
NCI-H226 lung

>  <growth (%)>
13.2

$$$$
>  <MOLECULE>
CCO/C=N/NC(=O)c1ccncc1

>  <EXPERIMENTAL TARGET>
NCI-H226 lung

>  <growth (%)>
106

$$$$
>  <MOLECULE>
CCN(CC)S(=O)(=O)c1ccc2[nH]c(=O)cc(C(=O)Nc3ccc(OC)cc3OC)c2c1

>  <EXPERIMENTAL TARGET>
NCI-H226 lung

>  <growth (%)>
100

$$$$
>  <MOLECULE>
COc1ccc(C2=NN(c3ccc(S(N)(=O)=O)cc3)C(c3cn(-c4ccccc4)nc3-c3ccc(Cl)cc3)C2)cc1 (configuration not stated)

>  <EXPERIMENTAL TARGET>
NCI-H226 lung

>  <growth (%)>
101

$$$$
>  <MOLECULE>
Nc1c(C(=O)Nc2ccccc2)sc2nc3c(cc12)CN(Cc1ccccc1)CC3

>  <EXPERIMENTAL TARGET>
NCI-H226 lung

>  <growth (%)>
45.2

$$$$
